These entries and their values trace back to paper PMC6644362.

- TARGET UNDER TEST: recombinant human TK2 (Homo sapiens, UniProt O00142)
- Sequence (O00142 56-265 limits assumed): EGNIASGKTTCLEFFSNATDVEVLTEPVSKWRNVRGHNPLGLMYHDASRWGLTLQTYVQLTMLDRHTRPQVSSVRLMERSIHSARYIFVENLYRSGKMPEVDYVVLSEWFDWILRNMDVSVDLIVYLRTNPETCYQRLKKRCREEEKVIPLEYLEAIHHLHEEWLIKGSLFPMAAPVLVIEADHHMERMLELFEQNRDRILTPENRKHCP
- PROTOCOL NOTES: Isothermal titration calorimetry
- Assay type: binding
- PROTOCOL CONDITIONS: Kd1 (high affinity), dTTP-bound enzyme, two-site binding model

{"SMILES REPR": "Cc1cn([C@H]2C[C@H](O)[C@@H](CO)O2)c(=O)[nH]c1=O", "TARGET UNDER TEST": "recombinant human TK2 (Homo sapiens, UniProt O00142)", "Kd": "0.55 µM"}

* * *

- TARGET UNDER TEST: recombinant human TK2 (Homo sapiens)
- PROTOCOL NOTES: Isothermal titration calorimetry
- Assay type: binding
- PROTOCOL CONDITIONS: Kd (dissociation constant), titrated to E–dC complex, 25 °C
pKd: −log10 of the molar value.
QUANTITY MEASURED: pKd

{"COMPOUND": "Nc1ncnc2c1ncn2[C@@H]1O[C@H](CO[P@](=O)(O)O[P@](=O)(O)O[P@@](=O)(O)S)[C@@H](O)[C@H]1O [ATPγS, adenosine 5′-(gamma-thio) triphosphate]", "QUANTITY MEASURED": "pKd", "READING": 4.70}

* * *

We begin with a simple list: items and their reported ΔFmax.
- TARGET UNDER TEST: recombinant human TK2 (Homo sapiens)
- PROTOCOL NOTES: Intrinsic tryptophan fluorescence
- Assay type: binding
- PROTOCOL CONDITIONS: dTTP-bound TK2, one-site specific binding model, mean ± SD

{"MOLECULE": "Nc1ccn([C@H]2C[C@H](O)[C@@H](COP(=O)(O)O)O2)c(=O)n1 [dCMP, deoxycytidine monophosphate]", "ΔFmax": 19.74}
{"MOLECULE": "Cc1cn([C@H]2C[C@H](N=[N+]=[N-])[C@@H](CO)O2)c(=O)[nH]c1=O", "ΔFmax": 12.77}
{"MOLECULE": "Cc1cn([C@H]2C[C@H](F)[C@@H](CO)O2)c(=O)[nH]c1=O", "ΔFmax": 17.81}
{"MOLECULE": "Cc1cn([C@H]2C[C@H](O)[C@@H](CO)O2)c(=O)[nH]c1=O", "ΔFmax": 21.95}
{"MOLECULE": "Cc1cn([C@H]2C[C@H](O)[C@@H](COP(=O)(O)O)O2)c(=O)[nH]c1=O [dTMP, deoxythymidine monophosphate]", "ΔFmax": 16.74}
{"MOLECULE": "Nc1ccn([C@H]2C[C@H](O)[C@@H](CO)O2)c(=O)n1", "ΔFmax": 19.86}

* * *

- TARGET UNDER TEST: recombinant human TK2 (Homo sapiens)
- PROTOCOL NOTES: Isothermal titration calorimetry
- Format: binding
- PROTOCOL CONDITIONS: Kd (dissociation constant), titrated to E–dT complex, 25 °C

{"MOLECULE": "Nc1ncnc2c1ncn2[C@@H]1O[C@H](CO[P@](=O)(O)O[P@](=O)(O)O[P@@](=O)(O)S)[C@@H](O)[C@H]1O [ATPγS, adenosine 5′-(gamma-thio) triphosphate]", "UNIT": "nM", "Kd": 930}
